Examples of molecules with documented pKd follow.
biological target: CDK1 (Homo sapiens); construct: made in house; host or cells: E. coli BL21-derived host (T7 phage) or HEK-293 ('BEK-293' [sic]); assay: KdELECT binding assay, CDK1; settings: CDK1, Table 9
Sequence (P06493 whole entry): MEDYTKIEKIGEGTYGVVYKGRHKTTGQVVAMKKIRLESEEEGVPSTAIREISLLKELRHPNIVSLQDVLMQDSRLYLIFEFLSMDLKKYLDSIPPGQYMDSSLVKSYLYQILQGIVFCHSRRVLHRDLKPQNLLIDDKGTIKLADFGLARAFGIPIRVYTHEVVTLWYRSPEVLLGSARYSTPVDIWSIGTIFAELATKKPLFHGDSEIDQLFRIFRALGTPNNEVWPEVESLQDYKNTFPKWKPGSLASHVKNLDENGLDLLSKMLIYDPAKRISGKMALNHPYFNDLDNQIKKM
pKd: −log10 of the molar value.

Completed entries (count: 2):
[
  {
    "substance smiles": "CCc1cnn2c(NCc3ccc(OCCN4CCN(CC5CCN(c6ncc(C(=O)N[C@H]7C(C)(C)[C@H](Oc8ccc(C#N)c(Cl)c8)C7(C)C)cn6)CC5)CC4)nc3)cc(N3CCCC[C@H]3CCO)nc12",
    "pKd": "< 5.60"
  },
  {
    "substance smiles": "CCc1cnn2c(NCc3ccc(OCC4CCN(CC5CCN(c6ncc(C(=O)N[C@H]7C(C)(C)[C@H](Oc8ccc(C#N)c(Cl)c8)C7(C)C)cn6)CC5)CC4)nc3)cc(N3CCCC[C@H]3CCO)nc12",
    "pKd": "< 5.60"
  }
]

Turning now to a further molecule:
Reported pKd for CCc1cnn2c(NCc3ccc(COCCN4CCN(CC5CCN(c6ncc(C(=O)N[C@H]7C(C)(C)[C@H](Oc8ccc(C#N)c(Cl)c8)C7(C)C)cn6)CC5)CC4)nc3)cc(N3CCCC[C@H]3CCO)nc12 : what is it?
< 5.60

====

Parameter 'readout' = Kd; parameter 'system' = CDK9 (Homo sapiens).
Sequence (P50750 whole entry): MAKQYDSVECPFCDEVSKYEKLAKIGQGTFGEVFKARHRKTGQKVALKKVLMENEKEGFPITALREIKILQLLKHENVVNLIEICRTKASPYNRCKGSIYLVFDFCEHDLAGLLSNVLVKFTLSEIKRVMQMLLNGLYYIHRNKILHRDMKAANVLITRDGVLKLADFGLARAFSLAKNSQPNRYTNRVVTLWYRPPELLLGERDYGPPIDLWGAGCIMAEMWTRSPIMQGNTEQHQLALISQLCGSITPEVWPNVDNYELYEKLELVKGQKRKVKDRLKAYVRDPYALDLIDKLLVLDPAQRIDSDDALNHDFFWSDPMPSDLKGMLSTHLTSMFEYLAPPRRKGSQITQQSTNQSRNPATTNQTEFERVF

Completed entries (count: 3):
[
  {
    "substance smiles": "CCc1cnn2c(N(C)Cc3ccc(OCCOCCOCCOCCOCCN(C)c4ncc(C(=O)N[C@H]5C(C)(C)[C@H](Oc6ccc(C#N)c(Cl)c6)C5(C)C)cn4)nc3)cc(N3CCCC[C@H]3CCO)nc12",
    "target or system": "CDK9 (Homo sapiens)",
    "Kd": "> 2500 nM"
  },
  {
    "substance smiles": "CC1(C)[C@H](NC(=O)c2cnc(N3CCC(CN4CCN(CCN5C/C=C/CCOc6cccc(c6)-c6ccnc(n6)Nc6cccc(c6)C5)CC4)CC3)nc2)C(C)(C)[C@H]1Oc1ccc(C#N)c(Cl)c1",
    "target or system": "CDK9 (Homo sapiens)",
    "Kd": "500 to 2500 nM"
  },
  {
    "substance smiles": "Cc1ncc(-c2nc(Nc3ccc(C(=O)N4CC[C@H](N(C)CCOCCOCCOCCOCCOC5CCN(c6ncc(C(=O)N[C@H]7C(C)(C)[C@H](Oc8ccc(C#N)c(Cl)c8)C7(C)C)cn6)CC5)C4)cc3)ncc2F)n1C(C)C",
    "target or system": "CDK9 (Homo sapiens)",
    "Kd": "50 to 500 nM"
  }
]

Turning now to a further compound:
Lab note: need Kd with CDK9 (Homo sapiens) for entry CN(CCOCCOCCOCCOCCNS(=O)(=O)c1ccc(Nc2ncc(Br)c(Nc3cccc(F)c3C(N)=O)n2)cc1)c1ncc(C(=O)N[C@H]2C(C)(C)[C@H](Oc3ccc(C#N)c(Cl)c3)C2(C)C)cn1 , please look it up.
> 2500 nM

====

tested on: T47D cells; assay: Cellular growth inhibition assay for T47D cells; type: cell-based; settings: Homo sapiens, 72 hours, CellTiter-Glo 2.0
quantity: GI50

Completed entries (count: 2):
[
  {
    "molecule": "CCc1cnn2c(NCc3ccc(OCCOC4CCN(c5ncc(C(=O)N[C@H]6C(C)(C)[C@H](Oc7ccc(C#N)c(Cl)c7)C6(C)C)cn5)CC4)nc3)cc(N3CCCC[C@H]3CCO)nc12 [Compound I-7]",
    "GI50": "> 3000 nM"
  },
  {
    "molecule": "CCc1cnn2c(NCc3ccc(OCCN4CCN(CC5CCN(c6ncc(C(=O)N[C@H]7C(C)(C)[C@H](Oc8ccc(C#N)c(Cl)c8)C7(C)C)cn6)CC5)CC4)nc3)cc(-c3ccccc3)nc12 [Compound I-47]",
    "GI50": "> 3000 nM"
  }
]

Reported GI50 for CC(C)n1cc(-c2ccnc3[nH]c(C4CCN(CCOCCOCCOCCOC5CCN(c6ncc(C(=O)N[C@H]7C(C)(C)[C@H](Oc8ccc(C#N)c(Cl)c8)C7(C)C)cn6)CC5)CC4)cc23)ccc1=O [Compound I-78] : what is it?
500 to 1500 nM
